# Tested on: wild-type Salmonella enterica ssp. typhimurium
# Assay type: cell-based
Residues, ends and D or L forms follow the SMILES beside them.
ASSAY ENDPOINT: MIC S. typhi
A complete answer gives the number and then names the unit.

[
  {
    "COMPOUND": "CC[C@H](C)[C@H](NC(=O)[C@H](CCCNC(=N)N)NC(=O)[C@H](Cc1c[nH]c2ccccc12)NC(=O)[C@H](CCCNC(=N)N)NC(=O)[C@@H](N)CCCCN)C(=O)N[C@@H](CCCNC(=N)N)C(=O)N[C@H](C(=O)N[C@@H](CCCNC(=N)N)C(=O)N[C@H](C(=O)N[C@H](C(=O)N[C@@H](CCCNC(=N)N)C(=O)N[C@@H](CCCCN)C(N)=O)[C@@H](C)CC)C(C)C)C(C)C [HH16, KRWRIRVRVIRK] (H-KRWRIRVRVIRK-NH2)",
    "MIC S. typhi": "3 mg/L"
  }
]

// next entry
Qu. I'd like to know its MIC S. typhi. The compound in question is CC[C@H](C)[C@H](N)C(=O)N[C@@H](CC(C)C)C(=O)N1CCC[C@H]1C(=O)N[C@@H](Cc1c[nH]c2ccccc12)C(=O)N[C@@H](CCCCN)C(=O)N[C@@H](Cc1c[nH]c2ccccc12)C(=O)N[C@@H](CCCNC(=N)N)C(=O)N[C@@H](Cc1c[nH]c2ccccc12)C(=O)N[C@@H](Cc1c[nH]c2ccccc12)C(=O)N[C@@H](CCCCN)C(=O)N[C@@H](Cc1c[nH]c2ccccc12)C(=O)N[C@@H](CCCNC(=N)N)C(=O)N[C@@H](CCCNC(=N)N)C(N)=O [HH971, ILPWKWRWWKWRR] (H-ILPWKWRWWKWRR-NH2; N-terminus assumed)
Ans. 16 mg/L
